SYSTEM UNDER TEST: COVID-19 (nCoV-2019, SARS-CoV2) Mpro (Severe acute respiratory syndrome coronavirus 2, UniProt P0DTD1)
EXPERIMENT: COVID-19 (nCoV-2019, SARS-CoV2) Mpro enzymatic assay
Type: biochemical
CONDITION INFO: 25 nM Mpro, 25 μM substrate; read-out: COVID-19 Mpro IC50
pIC50: −log10 of the molar value.
This section presents compounds with their documented pIC50 values.
RECORDED ENDPOINT: pIC50

[[record]]
compound = "N#CN1C[C@H](O)C[C@@H]1C(=O)N(c1ccc(C(F)(C(F)(F)F)C(F)(F)F)cc1)C(C(=O)NC1CCCCC1)c1cccnc1 (single isomer, unassigned) [Compound 779 Isomer 1]"
recorded_endpoint = "pIC50"
data_value = "> 5.70"

[[record]]
compound = "CC(C)(C)c1ccc(N(C(=O)[C@H]2C[C@@H](O)CN2C#N)C(C(=O)NCc2cccnc2)c2cccnc2)cc1 (single isomer, unassigned) [643 Isomer 1]"
recorded_endpoint = "pIC50"
data_value = "> 5.70"

[[record]]
compound = "CC(C)(C)OC(=O)N1CC(C(=O)N(c2ccc(C(C)(C)C)cc2)C(C(=O)NC2CCCCC2)c2cccnc2)C1 (stereo not drawn)"
recorded_endpoint = "pIC50"
data_value = "< 4.52"

[[record]]
compound = "C[C@H](NC(=O)C(c1cncc(F)c1)N(C(=O)[C@H]1C[C@@](C)(O)CN1C#N)c1ccc(S(F)(F)(F)(F)F)cc1)c1ccccc1 (single isomer, unassigned) [1328 Isomer 1]"
recorded_endpoint = "pIC50"
data_value = "> 5.70"

[[record]]
compound = "CC(C)(C)c1ccc(N(C(=O)c2c[nH]cn2)C(C(=O)NC2CCCCC2)c2cccnc2C#N)cc1 (stereo not drawn)"
recorded_endpoint = "pIC50"
data_value = "4.52 to 5.00"

[[record]]
compound = "CC(C)(C)c1ccc(N(C(=O)C2NCC[C@H]2F)C(C(=O)NC2CCCCC2)c2cccnc2)cc1 (stereo partly drawn)"
recorded_endpoint = "pIC50"
data_value = "5.00 to 5.70"

